This section presents compounds with their documented GI50 values.
- Tested on: SK-MEL-28 melanoma
- Experiment Description: NCI tumour cell line growth inhibition, 48 h

Compound: CC1=C2[C@H]3OC(=O)[C@@H](C)[C@@H]3CC[C@@]2(C)C=CC1=O
Assayed System: SK-MEL-28 melanoma
GI50: > 100 µM
--
Compound: COC(=O)N1c2ccc3c(nc(Cc4ccccc4)n3[C@H]3CCC[C@H](C(=O)O)C3)c2CC[C@@H]1C
Assayed System: SK-MEL-28 melanoma
GI50: 13.2 µM
--
Compound: Nc1ncc2ccc3c(ccn3C3CC(O)C(CO)O3)c2n1 (stereo not given)
Assayed System: SK-MEL-28 melanoma
GI50: > 100 µM
--
Compound: CCCCCCC/C(=N\N=C(N)N)c1ccc(O)cc1
Assayed System: SK-MEL-28 melanoma
GI50: 1.73 µM
--
Compound: Clc1ccc(CN2COc3c(ccc4cccnc34)C2)cc1Cl
Assayed System: SK-MEL-28 melanoma
GI50: 1.47 µM
